assay-notes: pH stability study
Format: physicochemical
recorded-conditions: pH 7 buffer, 20° C., 240 min
metric-name: % Remaining (%)

# compound, % Remaining (%)
rows = [
    ("O=C(CCc1cccnc1)Oc1ccc([N+](=O)[O-])cc1 [Compound D, 4-Nitrophenyl-3-(pyridin-3-yl)propanoate]", 89.25),
    ("O=C(CCc1cccnc1)Oc1c(F)cccc1F [Compound B]", 91.66),
    ("O=C(CCc1cccnc1)Oc1c(Cl)cccc1Cl [Compound A]", 98.75),
]

A = O=C(CCc1cccnc1)Oc1c(F)c(F)cc(F)c1F [Compound C]
B = O=C(CCc1cccnc1)ON1C(=O)CCC1=O [Compound E]
Ask | Select the item with the higher value of % Remaining from the options A and B listed. Pick one; state its label.
Reply | A

* * *

assay-notes: Comparative active ester reactivity study with HOPO nucleophile
recorded-conditions: 1,2-HOPO 1 eq., 240 min, 22±2° C.
metric-name: % Active Ester Remaining (%)

I = O=C(CCc1cccnc1)ON1C(=O)CCC1=O
II = O=C(CCc1cccnc1)Oc1c(F)cccc1F
III = O=C(CCc1cccnc1)Oc1c(F)c(F)cc(F)c1F
Ask | // rank the listed compounds by % Active Ester Remaining, lowest value first In plain terms: list the labels in the order you were asked to.
Reply | III, I, II

* * *

assay-notes: pH stability study
Assay type: physicochemical
recorded-conditions: pH 9 buffer, 20° C., 60 min
metric-name: % Remaining (%)

Example cases with answers are listed next.
# compound, % Remaining (%)
rows = [
    ("O=C(CCc1cccnc1)Oc1c(Cl)cccc1Cl", 92.61),
    ("O=C(CCc1cccnc1)Oc1ccc([N+](=O)[O-])cc1 [Compound D, 4-Nitrophenyl-3-(pyridin-3-yl)propanoate]", 42.40),
]

a = O=C(CCc1cccnc1)Oc1c(F)cccc1F
b = O=C(CCc1cccnc1)Oc1c(F)c(F)cc(F)c1F
c = O=C(CCc1cccnc1)ON1C(=O)CCC1=O
Ask | Thanks in advance: please rank these 3 entries by % Remaining, highest to lowest. Would you mind listing the labels in the order asked for?
Reply | a, c, b
(a: 54.47%, c: 0.74%, b: 0.49%)

* * *

assay-notes: pH stability study
Format: physicochemical
recorded-conditions: pH 5 buffer, 20° C., 60 min
metric-name: % Remaining (%)

Please review the entries below; each comes with its answer.
# compound, unit-info, recorded-number
data = [
    ("O=C(CCc1cccnc1)Oc1c(F)cccc1F", "%", 99.05),
    ("O=C(CCc1cccnc1)Oc1ccc([N+](=O)[O-])cc1 [Compound D, 4-Nitrophenyl-3-(pyridin-3-yl)propanoate]", "%", 99.19),
]

A = O=C(CCc1cccnc1)Oc1c(F)c(F)cc(F)c1F
B = O=C(CCc1cccnc1)ON1C(=O)CCC1=O
Ask | Task for the reader: decide whether A or B has the larger % Remaining. Response format: the label of the selected entry.
Reply | A

* * *

assay-notes: pH stability study
Type: physicochemical
recorded-conditions: pH 3 buffer, 20° C., 120 min
metric-name: % Remaining (%)

I = O=C(CCc1cccnc1)Oc1ccc([N+](=O)[O-])cc1 [Compound D, 4-Nitrophenyl-3-(pyridin-3-yl)propanoate]
II = O=C(CCc1cccnc1)ON1C(=O)CCC1=O [Compound E]
Ask | Between I and II , whose recorded % Remaining is greater? State your choice using its label.
Reply | I
